Assay: yeast display, Sf9 membrane polyspecificity reagent, FACS + sequencing; frameworks hold sequencing errors
test.readout: polyreactivity (PSR sort gate)

Record excerpt, results attached:
QVQLLESGGGLVQAGGSLRLTCAASGRTFYRNAMGWYRPAPGKERELVAAISSGGSTTYADSVKGRFTISRDNAKNTVYLQMNSLKPEDTAVYYCAARSHAGSVSPRLKEYDYWGQGTQVTVSS : low polyreactivity
QVQLVESGGGLLQAGGSLRLSCAASGIIIVGYAMGWYRQAPGKERELVAAISRSSGSTYYADSVKGRFTISRDNAKNTVYLQMNSLKPEDTAVYYCARYNQYYSTEDYWGQGPQVTVSS : high polyreactivity
QVQLVESGGGLVQAGGSLRLSCAASGRILSVYAMGWYRQAPGKERELVAAIEYSGGSTNYADSVKGRFTISRDNAKHTVYLQMNSLKPEDTAVYYCNREGGAIAWRYLLEYLYSWGQGTQVTVSS : low polyreactivity
QVQLVESGGGLVQAGGSLRLSCAASGFTFVDYDMGWYRQAPGKERELVAAITYSGGSTSYADSVKGRFTISRDYAKNTVYLQMNSLKPEDTAVYYCNTEGFLSAVYAFGYWGQGTQVTVSS : low polyreactivity
QVQLVESGGGLVQAGGSLRLSCAASGRTFYGNTMGWYIQAPGKERELVAAITRSGGSTYYADSVKGRFTISRDNAKNTVYFQMNSLKPEDTAVYYCAASRTYYAPYGYWGQGTQVTVSS : high polyreactivity
QVQLVESGGGLVQAGGSLRLSCAASGSTFYPYAMGWYRQAPGKERELVAAISSGGSTSYADSVKGRFTISRDNAKNTVYLQMNSLKPEDTAVYYCAVDVAGGEGMDYWGQGTQVTVSS : low polyreactivity
QVQLVESGGGLVQAGGSLRLSCAASGSTFIRYTMGWYRQAPGKERELVAAISTGGTNYADSVKGRFTISRDNAKNTVYLQMYSLKPGDTAVYYCAKPSSPSLGGVSDRIYWGQGTQVTVSS : low polyreactivity
QVQLVESGGGLVQAGGSLRLSCAASGRIFGINAMGCYRQAPGKERELVAAINWSGGSTYYADSVKGRFTISRDNAKNTVYLQMNSLKPEDTEVYYCAAQKYKRVGYWGQVTQVTVSS : high polyreactivity
QVQLVESGGGLVQAGGSLRLSCAASGSIFDPYAMGWYRQAPGKERELVAAISFRGGGTYYADSVKGRFTISRDNAKNTVYLQMNSLKPEDTAVYYCNVDYYWISGYVGSYIEFDYWGQGTQVTVSS : low polyreactivity
QVQLVESGGGLVQAGGSLRLSCAASGRIVVPYAMGWYRQAPGKERELVAAITSGGSTYYADSVKGRFTISRDNAKNTVYLQMNSLKPEDTAVYYCAATSRRSSETYYFWGQGTQVTVSS : high polyreactivity

Return reported polyreactivity (PSR sort gate) values for all items listed beneath this line.
1. QVQLVESGGGLVQAGGSLRLSCAASGSIFVENAMGWYRQAPGKERELVAAISSDASTNYADSVKGRFTISRDNAKNTVYLQMNSLKPEDTAVYSCAAGYNPHGQYDYWGQGTQVTVSS
2. QGQLVESGGGLVQAGGSLRLSCADSGNTFNPNAMGWYRQAPGKERELVAVIRFRGVSKYYADSVKGRFTISRDNAKNSVYLQMNSLKPEDTAVYYCAADFLYYYLRYYFWGQGTQVTVSS
3. QVQLVESGGGLVQAGGSLRLSCAASGGIFSYYAMGWYIQAPGKERELVAAISGSGGRTYYADSVKGRFTLSRDNAKNTVYLQMNSLKPEDTAVYYCAAYPVNRVDYRYDYWGQGTQVTVSS

OUTPUT:
1: low polyreactivity; 2: high polyreactivity; 3: high polyreactivity

Hi team, please reply with polyreactivity (PSR sort gate) for each item in this list.
1. QVQLVESGAGLVQAGGSLRLSCAASGFIFRQYAMGWYRQAPGQERELVAAISWSGGSTYYADSVKGRFTISRDNAKNTVYLQKNSLKPEDTAVYYCNVLTPPTDYDYWGQGTQVTVSS
2. QVQLEESGGGSVQAGGSLRISCAASGFTFFSYTMGWYRQAPGKERELVAAISKRGSRTYYADSVKGRFTISRDHAKNTVDLQMNSLKPEDTAVYYCAADAGPEVVHRREDYWGQVTQVTVSS

OUTPUT:
1: high polyreactivity; 2: high polyreactivity

Your task in this section: give polyreactivity (PSR sort gate) for each listed record.
1. QVQLVESGGGLVQAGGSLRLSCAASGLTFYKNAMGWYSQAPGKERELVAAITQSGGSTYYADSVKGRFTISRDNAKNTVYLQMNSLKPEDTAVYYCAAATYLNGNNYYWGQGTQVTVSS
2. QVQLVESGGGLVQAGGSLRLSCAASGSTFYYYAMGWYRQAPGKERELVAAITSGGSTDYADSVKGRFTISRDNAKNTVYLQMKSLKPEDTAVYYCAKDSQSYTREAYYYWGQGTQVTVSS
3. QVQLVESGGGLVQAGGSLRLSCAASASTFVYYAMGWYRQAPGKERELVAAISRSGTSTYYADSVKGRFTISRDNAKNTVYLQMNSLKPEDTAVFYCNARKKQGFDYWGQGTQVTVSS
4. QVQLVESGGGLVQAGGRLRLSCAASGSTFSYYAMGWYRQAPGKERELVAAISSRGSSTYYADSVKGRFTISRDNAKNTVYLQMNSLKPQATAVYYCAAVRYSPTKFNYWGQGTQVTVSS

OUTPUT:
["high polyreactivity", "low polyreactivity", "high polyreactivity", "high polyreactivity"]

Provide reported polyreactivity (PSR sort gate) for each item, in the same order as listed.
1. QVQLVESGGGLVQAGGSLRLSCAASGFTIRYYALGWYRQAPGKERELVAAISRGGSTTYADSVKGRFTISRDNAKNTVYLQMNSLKPEDTAVDYCAVYSKWSVTYDYWGQGTQVTVSS
2. QVQLVESGGGLVQAGGSLRLSCAASGRTFRTYTMGWYRQAHGKERELVAAITSTGSTYYADSVKGRFTISRDNAMNTVYLQMNSLKPEDTAVYYCNVGRRLRPYRCTRPNLEYYYWGQGTQVTVSS

OUTPUT:
1. high polyreactivity
2. high polyreactivity
